# System: SK-MEL-2 melanoma
# Protocol Notes: NCI-60 one-dose screen, 48 h (100 = growth as untreated, 0 = no growth, -100 = all killed)
# Measurement Context: 10 µM unless noted
# Experimental: Growth inhibition of the SK-MEL-2 human tumor cell line is measured as a screen for anti-cancer activity. Cells are grown in 96 well plates and exposed to the test compound for 48 hours. Compounds are tested at a single concentration, which is 10^-5 M for most compounds. The reported endpoint is percent growth (GI% or GIPRCNT), where numbers from 0 - 100% represent growth inhibition, and numbers from -100% - 0 represent cell death. For example, a value of 40 represents 60% growth inhibition. […]
Compounds without any hit were thinned out: in the full panel of roughly 83,000, 20% have a hit.
We use 90% as the dividing line for growth: on or above the line is met, below is not met.

// below: answered compounds
| Compound | System Name | Assigned Category |
| --- | --- | --- |
| CC(C)CCN(CCC(C)C)CC(O)c1cc2c(c3ccccc13)CCCC2 (centres undefined) | SK-MEL-2 melanoma | not met |
| NS(=O)(=O)c1ccc(NC(=O)/C(=C\c2ccc(Cl)cc2Cl)NC(=O)c2ccccc2)cc1 | SK-MEL-2 melanoma | met |

Okay, now this compound:
Evaluate Nc1nc(NC(=O)Nc2ccc(C(=O)O)cc2)nn1-c1ccc(S(N)(=O)=O)cc1 : growth at minimum 90%?
met

###

# System: RXF 393 renal
# Protocol Notes: NCI-60 one-dose screen, 48 h
# Measurement Context: 10 µM unless noted
Compounds without any hit were thinned out: in the full panel of roughly 83,000, 20% have a hit. Calls of active or inactive are those of the source. How the source made its calls: active means growth percent below 10; inactive means the rest.
// classify into 1 = active, 0 = inactive

These solved cases illustrate the format of a correct answer.
| Compound | Assigned Category |
| --- | --- |
| CC1=CC(c2ccco2)=C2C(N)=NNC2N1 (centres undefined) | 0 |
| O=C(CSc1nc(-c2ccccc2)cc(=O)[nH]1)Nc1nc(-c2ccccc2)cs1 | 0 |
| Cc1c(CN)cc(-c2ccc(Cl)cc2)n1-c1ccccc1 | 0 |
| COC(=O)c1c2c(n3ccccc13)C(=O)c1ccccc1C2=O | 0 |
| COc1ccc(Cn2cc(C(=O)N=Nc3c(O)[nH]c4c(C)cccc34)nn2)cc1 | 0 |
| O=C(CCCCCCN1CC(=O)N2[C@H](c3ccc(Cl)cc3)c3[nH]c4ccccc4c3C[C@@H]2C1=O)NO | 0 |
| COc1ccc(N2CCC(=S)NC2=S)cc1 | 0 |
| Cn1ccc(=O)nc1 | 0 |

Look up the recorded call for Cn1cc(-c2csc(-c3c[nH]c4ccc(F)cc34)n2)c2ccnc(Cl)c21 in this test.
0

Please let me know the test result on file for COc1ccc(/C=C/C(=O)c2ccc(NC(=O)CSc3nc4c([nH]3)c(=O)n(C)c(=O)n4C)cc2)cc1OC .
0

###

# Test system: T-47D breast
# Protocol Notes: NCI-60 one-dose screen, 48 h
# Measurement Context: 10 µM unless noted
The panel holds about 83,000 compounds, 20% with a hit somewhere; the sample as a whole holds those more often. The source made the active and inactive calls. The calls were made as follows: active = growth percent below 10; inactive = the rest.
Entry note: the call must match one of 1 (yes) (active), 0 (no) (inactive)

| Compound | Assigned Category |
| --- | --- |
| COc1cc(-c2nc3c(ncc4ccc(=O)n(-c5ccccc5)c43)s2)cc(OC)c1OC | 0 (no) |

Per the assay record, what outcome was assigned to O=C(CCl)NNc1nccc(Nc2ccc(S(=O)(=O)Nc3ccncc3)cc2)n1 ?
0 (no)

# outcome recorded in this test, key = O=C(Nc1cnc(Nc2ccc(N3CCOCC3)nc2)nc1Oc1ccc(C(F)(F)F)cc1)c1ccncc1
0 (no)

For this compound, state the assay outcome: COc1cccc(CNc2c3ccccc3nc3ccccc23)c1
0 (no)

Could you kindly confirm the outcome this assay logged for CC1CCN(C(=O)CCCl)c2ccccc21 (stereo unspecified) ?
0 (no)

So what was the verdict on CCCn1cnc2c(c1=N)C(c1ccc(F)cc1)c1sc3c(F)cccc3c1O2 (stereo unspecified) in this test?
0 (no)

Record request — test call for CC(C)(C)c1cc(Cl)c(O)c(CNCCO)c1
0 (no)

Hello, I am checking results. What call was entered for O=C(NCc1cccc(CNC(=O)Nc2nc3ccccc3[nH]2)c1)Nc1nc2ccccc2[nH]1 ?
0 (no)

Kindly provide the recorded test outcome for the following compound: O=C1c2cccc3cccc(c23)C(=O)N1C/C=C/c1ccc2c3c(cccc13)C(=O)N(CCO)C2=O
0 (no)

Name the outcome recorded for C=C1CC[C@@H]2C(C)(C)[C@@H](O)CC[C@@]2(C)[C@@H]1COc1ccc2ccc(=O)oc2c1 in the assay.
1 (yes)

GET /call?item= COc1ccc(Cn2cc3c(c2-c2ccccc2)CCc2cnoc2-3)cc1 returns the recorded outcome of this test.
0 (no)

Name the outcome recorded for Cc1c2ccncc2c(C)c2c1c1cc(CO)ccc1n2C in the assay.
1 (yes)

Recorded test call requested for O=C1c2ccccc2C(=O)C1c1ccc(Br)cc1
0 (no)

What call does the record list for C=C(C)[C@@H]1CC[C@]2(C(=O)N3CCN(C)CC3)CC[C@]3(C)[C@H](CC[C@@H]4[C@@]5(C)CC[C@H](OC(=O)c6ccccc6C(=O)O)C(C)(C)[C@@H]5CC[C@]43C)[C@@H]12 ?
0 (no)

Tell me the recorded outcome of this test for C=CCn1c(SCC(=O)Nc2ccc(/C(C)=N/O)cc2)nnc1-c1cc(-c2ccc(S(N)(=O)=O)cc2)nc2ccccc12 .
0 (no)

Dear all, I need the recorded test outcome for Cc1cn(-c2cc(NC(=O)c3cncc(C#Cc4c(N)ncc5ccc(F)cc45)c3)cc(C(F)(F)F)c2)cn1 , thank you.
0 (no)

Recorded test call requested for CCOC(=O)/C=C1\S/C(=N\Nc2cc(=O)[nH]c3ccccc23)N(c2ccccc2)C1=O
0 (no)

Call for entry COc1ccc2c(c1)c(-c1nc(-c3c[nH]c4ncccc34)cs1)cn2CCCN1CCOCC1 :
0 (no)

Hello, I am checking results. What call was entered for COc1ccc(C2=CN3CC=CC3CC2=O)cc1 (stereo unspecified) ?
0 (no)

Would you mind telling me which call this test gave CCSc1oc(C)nc1[P+](c1ccccc1)(c1ccccc1)c1ccccc1 ?
0 (no)

What classification did O=C(Cn1nnc2ccccc21)N/N=C/c1c[nH]c2ccccc12 end up with in this test?
0 (no)
